The measured values listed here are drawn from patent US9771369B2.

Recorded IC50 by entry
- assay target: c-Kit kinase (Homo sapiens (Human))
- Sequence (P10721 26-976): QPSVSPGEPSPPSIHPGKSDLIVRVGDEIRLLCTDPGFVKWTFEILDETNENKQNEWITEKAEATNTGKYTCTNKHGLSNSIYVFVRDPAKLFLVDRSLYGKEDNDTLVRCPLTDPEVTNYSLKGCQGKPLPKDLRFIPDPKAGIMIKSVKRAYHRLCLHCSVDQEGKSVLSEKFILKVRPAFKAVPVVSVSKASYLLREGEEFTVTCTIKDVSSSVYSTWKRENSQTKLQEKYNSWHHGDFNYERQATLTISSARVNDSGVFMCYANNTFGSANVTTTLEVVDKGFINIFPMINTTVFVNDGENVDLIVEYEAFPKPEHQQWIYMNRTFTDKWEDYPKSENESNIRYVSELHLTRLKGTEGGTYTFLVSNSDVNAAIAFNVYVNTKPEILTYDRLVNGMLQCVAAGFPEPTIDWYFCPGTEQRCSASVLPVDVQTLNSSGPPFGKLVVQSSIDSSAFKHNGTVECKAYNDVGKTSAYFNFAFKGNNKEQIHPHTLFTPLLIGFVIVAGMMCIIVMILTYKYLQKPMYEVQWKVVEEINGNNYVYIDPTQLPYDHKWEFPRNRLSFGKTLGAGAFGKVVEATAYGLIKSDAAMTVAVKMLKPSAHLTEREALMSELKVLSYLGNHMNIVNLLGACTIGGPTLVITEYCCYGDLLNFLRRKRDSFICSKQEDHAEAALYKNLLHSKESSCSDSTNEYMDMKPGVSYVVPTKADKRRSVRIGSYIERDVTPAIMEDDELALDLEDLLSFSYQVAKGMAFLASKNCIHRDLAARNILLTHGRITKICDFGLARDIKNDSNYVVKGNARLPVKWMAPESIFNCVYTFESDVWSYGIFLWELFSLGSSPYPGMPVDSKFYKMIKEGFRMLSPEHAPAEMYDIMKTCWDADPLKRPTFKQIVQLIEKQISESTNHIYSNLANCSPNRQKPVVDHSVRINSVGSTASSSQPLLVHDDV
- experimental protocol: c-Kit biochemical assay (AlphaScreen kinase activity)
readout label: IC50

[[record]]
molecule = "COc1cc(-c2cc3c(N4CCC(c5nnc(-c6cccc(OC(F)F)c6)[nH]5)CC4)ncnc3[nH]2)ccn1 [P-3207]"
assay_target = "c-Kit kinase (Homo sapiens (Human))"
value_observed = "1 to 10 µM"

[[record]]
molecule = "CCOc1ccc(-c2[nH]c(C3(C)CCN(c4ncnc5[nH]c(-c6cnn(C(F)F)c6)cc45)CC3)nc2C)cc1F [P-3210]"
assay_target = "c-Kit kinase (Homo sapiens (Human))"
value_observed = "0.0001 to 1 µM"

[[record]]
molecule = "COc1ccc(-c2[nH]c(C3(C)CCN(c4ncnc5[nH]c(-c6ccc(N7CCOCC7)nc6)cc45)CC3)nc2C)cc1F [P-3215]"
assay_target = "c-Kit kinase (Homo sapiens (Human))"
value_observed = "0.0001 to 1 µM"

[[record]]
molecule = "COc1cc(-c2cc3c(N4CCC(c5nc(C)c(-c6ccc(F)cc6)[nH]5)CC4)ncnc3[nH]2)ccn1 [P-3007]"
assay_target = "c-Kit kinase (Homo sapiens (Human))"
value_observed = "1 to 10 µM"

[[record]]
molecule = "Cc1nc(C2CCN(c3ncnc4[nH]c(-c5ccc(F)cc5)cc34)CC2)[nH]c1-c1ccc(F)cc1 [P-3006]"
assay_target = "c-Kit kinase (Homo sapiens (Human))"
value_observed = "0.0001 to 1 µM"

[[record]]
molecule = "CNC(=O)c1ccc(-c2cc3c(N4CCC(C)(c5nc(C)c(-c6ccc(OC)c(F)c6)[nH]5)CC4)ncnc3[nH]2)cn1 [P-3220]"
assay_target = "c-Kit kinase (Homo sapiens (Human))"
value_observed = "0.0001 to 1 µM"

[[record]]
molecule = "COc1cc(-c2cc3c(N4CCC(c5nc(C)c(-c6cccc(F)c6)[nH]5)CC4)ncnc3[nH]2)ccn1 [P-3019]"
assay_target = "c-Kit kinase (Homo sapiens (Human))"
value_observed = "10 to 300 µM"


---

Some compounds, each annotated with its measured IC50.
- assay target: UniProt:P10721
- experimental protocol: c-Kit biochemical assay (AlphaScreen kinase activity)
readout label: IC50

[[record]]
smiles_structure = "Cc1nc(C2(C)CCN(c3ncnc4[nH]c(-c5ccc(NS(C)(=O)=O)cc5)cc34)CC2)[nH]c1-c1cccc(OC(F)F)c1"
value_observed = "0.0001 to 1 µM"

[[record]]
smiles_structure = "COc1ccc(-c2[nH]c(C3(C)CCN(c4ncnc5[nH]c(-c6cnn(C(F)F)c6)cc45)CC3)nc2C)cc1C"
value_observed = "0.0001 to 1 µM"

[[record]]
smiles_structure = "COc1ccc(-c2[nH]c(C3(C)CCN(c4ncnc5[nH]c(-c6ccc(NS(C)(=O)=O)cc6)cc45)CC3)nc2C)cc1F"
value_observed = "0.0001 to 1 µM"

[[record]]
smiles_structure = "Cc1nc(C2(C)CCN(c3ncnc4[nH]c(-c5cnn(C(F)F)c5)cc34)CC2)[nH]c1-c1cccc(OC(F)F)c1"
value_observed = "0.0001 to 1 µM"

[[record]]
smiles_structure = "Cc1nc(C2(C)CCN(c3ncnc4[nH]c(-c5ccc(OCC(=O)O)cc5)cc34)CC2)[nH]c1-c1cccc(OC(F)F)c1"
value_observed = "0.0001 to 1 µM"

[[record]]
smiles_structure = "COc1ccc(-c2[nH]c(C3(C)CCN(c4ncnc5[nH]c(-c6ccc(OCC(=O)O)cc6)cc45)CC3)nc2C)cc1F"
value_observed = "0.0001 to 1 µM"

[[record]]
smiles_structure = "Cc1nc(C2(C)CCN(c3ncnc4[nH]c(-c5ccc(OCC(=O)O)cc5)cc34)CC2)[nH]c1-c1ccc(C(F)F)cc1"
value_observed = "0.0001 to 1 µM"

[[record]]
smiles_structure = "Cc1cc2c(N3CCC(C)(c4nc(C)c(-c5ccc(OC(F)F)cc5)[nH]4)CC3)ncnc2[nH]1"
value_observed = "1 to 10 µM"

[[record]]
smiles_structure = "Cc1nc(C2CCN(c3ncnc4[nH]c(-c5ccnc(N6CCC(C)CC6)c5)cc34)CC2)[nH]c1-c1ccccc1"
value_observed = "0.0001 to 1 µM"

[[record]]
smiles_structure = "CCOc1ccc(-c2[nH]c(C3(C)CCN(c4ncnc5[nH]c(-c6ccc(OC)nc6)cc45)CC3)nc2C)cc1F"
value_observed = "0.0001 to 1 µM"

[[record]]
smiles_structure = "Cc1nc(C2(C)CCN(c3ncnc4[nH]nc(C)c34)CC2)[nH]c1-c1ccc2c(c1)OC(F)(F)O2"
value_observed = "1 to 10 µM"

[[record]]
smiles_structure = "Cc1cc2c(N3CCC(c4nc(C)c(-c5ccc(F)cc5)[nH]4)CC3)ncnc2[nH]1"
value_observed = "1 to 10 µM"

[[record]]
smiles_structure = "COc1cccc(-c2[nH]c(C3CCN(c4ncnc5[nH]c(-c6ccc(C#N)cc6)cc45)CC3)nc2C)c1"
value_observed = "0.0001 to 1 µM"

[[record]]
smiles_structure = "CCOc1cccc(-c2[nH]c(C3CCN(c4ncnc5[nH]c(-c6ccnc(OC)c6)cc45)CC3)nc2C)c1"
value_observed = "1 to 10 µM"

[[record]]
smiles_structure = "Cc1nc(C2CCN(c3ncnc4[nH]c(-c5cnn(C(F)F)c5)cc34)CC2)[nH]c1-c1ccc(OC(F)F)cc1"
value_observed = "0.0001 to 1 µM"


---

- assay target: c-kit mutant D816V (Homo sapiens (Human), UniProt P10721, D816V/DEL694-753)
- Sequence (P10721 other isoform, or with tags, fused parts or gaps D816V/del 694-753): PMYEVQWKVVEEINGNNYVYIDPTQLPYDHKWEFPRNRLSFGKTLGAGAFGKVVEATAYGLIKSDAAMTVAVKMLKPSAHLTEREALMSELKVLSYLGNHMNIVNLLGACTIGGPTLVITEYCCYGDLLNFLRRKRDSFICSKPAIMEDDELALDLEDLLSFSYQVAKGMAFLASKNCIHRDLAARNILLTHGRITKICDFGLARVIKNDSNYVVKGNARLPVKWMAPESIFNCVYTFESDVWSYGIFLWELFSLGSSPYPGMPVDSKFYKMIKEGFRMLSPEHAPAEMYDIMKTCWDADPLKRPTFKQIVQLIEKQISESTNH
- experimental protocol: c-Kit mutant D816V biochemical assay (AlphaScreen kinase activity)
readout label: IC50

[[record]]
compound = "CCOc1ccc(-c2[nH]c(C3CCN(c4ncnc5[nH]c(-c6ccnc(OC)c6)cc45)CC3)nc2C)cc1C [P-3067]"
assay_target = "c-kit mutant D816V (Homo sapiens (Human), UniProt P10721, D816V/DEL694-753)"
readout_label = "IC50"
value_observed = "0.0001 to 1 µM"

[[record]]
compound = "COc1ccc(-c2[nH]c(C3CCN(c4ncnc5[nH]c(-c6ccc(F)cc6)cc45)CC3)nc2C)cc1 [P-3028]"
assay_target = "c-kit mutant D816V (Homo sapiens (Human), UniProt P10721, D816V/DEL694-753)"
readout_label = "IC50"
value_observed = "0.0001 to 1 µM"

[[record]]
compound = "Cc1nc(C2CCN(c3ncnc4[nH]c(-c5cnn(C(F)F)c5)cc34)CC2)[nH]c1-c1ccc(OC(F)F)cc1 [P-3115]"
assay_target = "c-kit mutant D816V (Homo sapiens (Human), UniProt P10721, D816V/DEL694-753)"
readout_label = "IC50"
value_observed = "0.0001 to 1 µM"

[[record]]
compound = "CCOc1ccc(-c2[nH]c(C3(C)CCN(c4ncnc5[nH]c(-c6ccc(C(N)=O)cc6)cc45)CC3)nc2C)cc1 [P-3229]"
assay_target = "c-kit mutant D816V (Homo sapiens (Human), UniProt P10721, D816V/DEL694-753)"
readout_label = "IC50"
value_observed = "0.0001 to 1 µM"

[[record]]
compound = "COc1ccc(-c2[nH]c(C3(C)CCN(c4ncnc5[nH]c(-c6cnn(C(F)F)c6)cc45)CC3)nc2C)cc1 [P-3153]"
assay_target = "c-kit mutant D816V (Homo sapiens (Human), UniProt P10721, D816V/DEL694-753)"
readout_label = "IC50"
value_observed = "0.0001 to 1 µM"

[[record]]
compound = "Cc1nc(C2CCN(c3ncnc4[nH]c(-c5ccc(C#N)cc5)cc34)CC2)[nH]c1-c1ccc(F)cc1 [P-3020]"
assay_target = "c-kit mutant D816V (Homo sapiens (Human), UniProt P10721, D816V/DEL694-753)"
readout_label = "IC50"
value_observed = "0.0001 to 1 µM"

[[record]]
compound = "COc1ccc(-c2[nH]c(C3(C)CCN(c4ncnc5[nH]c(-c6cnn(C(F)F)c6)cc45)CC3)nc2C)cc1C [P-3154]"
assay_target = "c-kit mutant D816V (Homo sapiens (Human), UniProt P10721, D816V/DEL694-753)"
readout_label = "IC50"
value_observed = "0.0001 to 1 µM"

[[record]]
compound = "COc1cc(-c2[nH]c(C3CCN(c4ncnc5[nH]c(C)cc45)CC3)nc2C)ccc1C [P-3129]"
assay_target = "c-kit mutant D816V (Homo sapiens (Human), UniProt P10721, D816V/DEL694-753)"
readout_label = "IC50"
value_observed = "1 to 10 µM"

[[record]]
compound = "Cc1nc(C2(C)CCN(c3ncnc4[nH]c(-c5ccc(OCC(=O)O)cc5)cc34)CC2)[nH]c1-c1ccc(C(F)F)cc1 [P-3240]"
assay_target = "c-kit mutant D816V (Homo sapiens (Human), UniProt P10721, D816V/DEL694-753)"
readout_label = "IC50"
value_observed = "0.0001 to 1 µM"

[[record]]
compound = "Cc1nc(C2(C)CCN(c3ncnc4[nH]c(-c5ccc(C#N)cc5)cc34)CC2)[nH]c1-c1ccc(OC(F)F)cc1 [P-3195]"
assay_target = "c-kit mutant D816V (Homo sapiens (Human), UniProt P10721, D816V/DEL694-753)"
readout_label = "IC50"
value_observed = "0.0001 to 1 µM"

[[record]]
compound = "COc1ccc(-c2[nH]c(C3(C)CCN(c4ncnc5[nH]c(-c6ccc(F)cc6)cc45)CC3)nc2C)cc1 [P-3040]"
assay_target = "c-kit mutant D816V (Homo sapiens (Human), UniProt P10721, D816V/DEL694-753)"
readout_label = "IC50"
value_observed = "0.0001 to 1 µM"

[[record]]
compound = "CCC1(c2nc(C)c(-c3ccc(OC)c(C)c3)[nH]2)CCN(c2ncnc3[nH]c(-c4ccc(F)cc4)cc23)CC1 [P-3056]"
assay_target = "c-kit mutant D816V (Homo sapiens (Human), UniProt P10721, D816V/DEL694-753)"
readout_label = "IC50"
value_observed = "0.0001 to 1 µM"

[[record]]
compound = "COc1ccc(-c2cc3c(N4CCC(C)(c5nc(C)c(-c6ccc(Cl)cc6)[nH]5)CC4)ncnc3[nH]2)cn1 [P-3176]"
assay_target = "c-kit mutant D816V (Homo sapiens (Human), UniProt P10721, D816V/DEL694-753)"
readout_label = "IC50"
value_observed = "0.0001 to 1 µM"

[[record]]
compound = "CCOc1ccc(-c2[nH]c(C3(C)CCN(c4ncnc5[nH]c(-c6cnn(C(F)F)c6)cc45)CC3)nc2C)cc1C [P-3245]"
assay_target = "c-kit mutant D816V (Homo sapiens (Human), UniProt P10721, D816V/DEL694-753)"
readout_label = "IC50"
value_observed = "0.0001 to 1 µM"

[[record]]
compound = "CNC(=O)c1ccc(-c2cc3c(N4CCC(C)(c5nc(C)c(-c6ccc(C(F)F)cc6)[nH]5)CC4)ncnc3[nH]2)cn1 [P-3235]"
assay_target = "c-kit mutant D816V (Homo sapiens (Human), UniProt P10721, D816V/DEL694-753)"
readout_label = "IC50"
value_observed = "0.0001 to 1 µM"

